Ok so here's the combined literature set: IC50 for Lysine-specific demethylase 5A (Homo sapiens, UniProt P29375).

molecule: CS(=O)(=O)c1ccc(-c2ccnn2-c2cc(C(=O)O)ccn2)cc1O
IC50: 100 to 1000 nM
//
molecule: O=C(O)c1ccnc(-n2nc(-c3ccc(Cl)cc3)cc2O)c1
IC50: 1000 to 10000 nM
//
molecule: O=C(O)c1ccnc2cc(C3(O)CCCC3)[nH]c12
IC50: < 100 nM
//
molecule: O=C(O)c1ccnc2cc(C(=O)N3CCCC(c4ccccc4)C3)[nH]c12 (stereo not drawn)
IC50: 100 to 1000 nM
//
molecule: O=C(O)c1ccnc(-n2nccc2OCc2cccc(Br)c2)c1
IC50: < 100 nM
//
molecule: O=C(O)c1ccnc(-n2nccc2OCc2ccc(F)c(Cl)c2)c1
IC50: < 100 nM
//
molecule: O=C(O)c1ccnc(-n2nccc2OC2CCc3cc(F)ccc32)c1 (stereo not drawn)
IC50: 100 to 1000 nM
//
molecule: Cn1cnc(-c2nccc3c(O)nc(OCC(F)F)nc23)c1
IC50: ≤ 100 nM
//
molecule: CN(CCn1cnc(-c2cc(C(=O)O)ccn2)c1)Cc1ccc(F)cc1
IC50: ≤ 100 nM
//
molecule: Cc1ccc2c(Nc3cnccc3C(=O)O)nn(C)c2c1
IC50: < 100 nM
//
molecule: Cn1nccc1C(O)c1cc2nccc(C(=O)O)c2[nH]1 (racemic)
IC50: < 100 nM
//
molecule: O=C(O)c1ccnc2cc(COc3cccc(Cl)c3)[nH]c12
IC50: < 100 nM
//
molecule: CC(O)C(=O)NC1CCN(C(=O)c2cc(C(C)C)n[nH]2)C1 (stereo not drawn)
IC50: 1.6 nM
//
molecule: CC(C)c1cc(C(=O)N2CCC(NC(=O)C3CCC3)C2)[nH]n1 (stereo not drawn)
IC50: 0.083 nM
//
molecule: Oc1nc(OCc2coc3ccccc23)nc2cnccc12
IC50: 100 to 1000 nM
//
molecule: CC(CCc1ccccc1)c1cc(C(=O)N2CCC(NC(=O)C3CC3)C2)[nH]n1 (stereo not drawn)
IC50: 0.12 nM
//
molecule: O=C(O)c1ccnc2c(Cl)c[nH]c12
IC50: 1000 to 10000 nM
//
molecule: O=C(O)c1ccnc2cc(COc3ccc(F)cc3Cl)[nH]c12
IC50: < 100 nM
//
molecule: CC(C)c1cc(C(=O)N2CCC(c3cc(-c4cnn(C)c4)ccn3)C2)[nH]n1 (stereo not drawn)
IC50: 0.57 nM
//
molecule: O=C(c1ccccc1)N1CC[C@H](n2cc(Oc3nc(O)c4ccncc4n3)cn2)C1
IC50: ≤ 100 nM
//
molecule: O=C(NC1CCN(C(=O)c2cc(Br)n[nH]2)C1)C1CC1 (stereo not drawn)
IC50: 14 nM
//
molecule: Cc1ccc(COc2ccnn2-c2cc(C(=O)O)ccn2)cc1
IC50: < 100 nM
//
molecule: CC(C)c1cc(C(=O)N2CC[C@@H](NC(=O)C3CC3)C2)[nH]n1
IC50: 0.049 nM
//
molecule: O=C(O)c1ccnc(-n2nccc2OCc2cccc(O)c2)c1
IC50: < 100 nM
//
molecule: O=C(O)c1ccnc2cc(Cc3ccc(Cl)c(Cl)c3)[nH]c12
IC50: 1000 to 10000 nM
//
molecule: CCc1cc(F)ccc1COc1ccnn1-c1cc(C(=O)O)ccn1
IC50: < 100 nM
//
molecule: Oc1nc(Oc2cnn(C3CCNCC3)c2)nc2cnccc12
IC50: ≤ 100 nM
